Quick reference: pKd of the listed items.
# study_system: T1, human IL-23 (human, UniProt Q9NPF7 20-189; P29460 23-328)
# T1 construct: Bought recombinant heterodimeric cytokine (eBioscience 34-8239-85 for panning; R&D Systems for the splenocyte assay); also called hIL-23; hIL23
# T1 sequence (looked up) 1: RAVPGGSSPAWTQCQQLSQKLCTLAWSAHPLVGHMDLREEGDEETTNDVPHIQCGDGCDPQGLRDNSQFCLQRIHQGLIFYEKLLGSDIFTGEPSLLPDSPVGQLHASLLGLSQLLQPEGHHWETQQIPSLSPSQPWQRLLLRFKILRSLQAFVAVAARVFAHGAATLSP
# T1 sequence (looked up) 2: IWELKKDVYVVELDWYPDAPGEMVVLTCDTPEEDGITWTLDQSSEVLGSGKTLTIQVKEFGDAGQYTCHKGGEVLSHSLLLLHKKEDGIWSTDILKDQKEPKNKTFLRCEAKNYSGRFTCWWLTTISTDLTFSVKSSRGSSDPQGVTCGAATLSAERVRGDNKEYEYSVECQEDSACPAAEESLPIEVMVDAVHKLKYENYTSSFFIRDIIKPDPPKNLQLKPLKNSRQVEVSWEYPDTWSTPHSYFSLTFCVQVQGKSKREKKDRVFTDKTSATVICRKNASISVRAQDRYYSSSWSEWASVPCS
# measurement_description: kinetic ELISA, soluble polypeptide
pKd: −log10 of the molar value.
assay_endpoint: pKd

binder	result
MA15 (designed binder) MSIQEIQKEIANIQAVIAGIQKYIYTMTGGSGGSGGGGSGGSGGMSIEEIQKQIAAIQCQIAAIQKQIYAMTGSGGGGSGMSIEEIQKQITAIQAQIIAIYKQIMAMPR	10.05
59m_C2eQ (designed binder, also called design variant; polypeptide 19) single chain Alphabody: MSIQQIQKEIAQIQEVIAGIQKWIYMMTGGSGGSGGGGSGGSGGMSIEEIQKQIAAIQCQIAAIQKQIYAMTGSGGGGSGGSGGGGSGMSIEEIQKQITAIQEQIIAIYKQIMAMTP	8.41
MA12 (designed binder, also called MAl2) MSIQEIQKEIAQIQAVIAGIQKYIYTMTGGSGGSGGGGSGGSGGMSIEEIQKQIAAIQCQIAAIQKQIYAMTGSGGGGSGGSGGGGSGMSIEEIQKQIAAIQEQILAIYKQIMAMVT	9.59
MB38 (designed binder) MSIQEIQKEIKQIQEVIAGIQKYIYGMTGGSGGSGGMSIEEIQKQIAAIQCQIAAIQKQIYAMTGSGGGGSGMSIEEIQKQIAAIQNQILAIYKQIMAMPQ	9.68
MB74 (designed binder) MSIQQIQKEIATIQEVIAGIQKYIYRMTGGSGGSGGGGSGGSGGMSIEEIQKQIAAIQCQIAAIQKQIYAMTGSGGGGSGMSIEEIQKQIAAIQGQILAIYKQIMAMAI	9.60
